TEST_SYSTEM: Tyrosine-protein phosphatase non-receptor type 1 (Homo sapiens)
Sequence (P18031 whole entry): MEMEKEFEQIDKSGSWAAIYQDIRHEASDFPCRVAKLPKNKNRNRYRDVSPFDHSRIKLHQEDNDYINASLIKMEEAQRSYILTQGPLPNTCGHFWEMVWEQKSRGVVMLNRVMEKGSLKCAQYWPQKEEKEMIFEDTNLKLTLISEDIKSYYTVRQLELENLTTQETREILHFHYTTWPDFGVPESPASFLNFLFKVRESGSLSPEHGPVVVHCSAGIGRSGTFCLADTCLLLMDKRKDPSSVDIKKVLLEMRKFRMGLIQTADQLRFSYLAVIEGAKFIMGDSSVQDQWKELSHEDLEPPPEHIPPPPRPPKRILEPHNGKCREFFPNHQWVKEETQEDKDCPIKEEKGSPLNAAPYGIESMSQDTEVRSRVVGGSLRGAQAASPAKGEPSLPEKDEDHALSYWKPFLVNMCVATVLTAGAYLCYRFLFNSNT
ASSAY_PROTOCOL: PTP Assay
CONDITION_SUMMARY: pH 6; 25 °C
QUANTITY_KIND: IC50 (µM)
Supply the numeric figure in µM, leaving out any unit text.

IC50 reading for `COc1cc(/C=C2\SC(=S)N(c3cccc(Cl)c3)C2=O)cc([N+](=O)[O-])c1O` : 4.3

----------
TEST_SYSTEM: UniProt:P18031
ASSAY_PROTOCOL: PTP Assay
CONDITION_SUMMARY: 25 °C
QUANTITY_KIND: pIC50
// pIC50: -log10(molar conc.)

The following molecules have reported results that may help.
>>> observed_result("COc1cc(/C=C2\\SC(=S)N(c3cccc(Cl)c3)C2=O)ccc1O")
4.36
>>> observed_result("COc1cc(/C=C2\\SC(=S)N(c3ccc(Cl)c(Cl)c3)C2=O)cc([N+](=O)[O-])c1O")
5.15
>>> observed_result("COc1cc(/C=C2\\SC(=S)N(c3cccc(F)c3)C2=O)cc([N+](=O)[O-])c1O")
4.92
>>> observed_result("O=C1/C(=C/c2ccc(O)c([N+](=O)[O-])c2)SC(=S)N1c1cccc(Cl)c1")
4.17
>>> observed_result("COc1cc(/C=C2\\SC(=S)N(c3ccc(O)cc3)C2=O)cc([N+](=O)[O-])c1O")
4.54

Okay, next one:
pIC50 reading for `COc1cc(/C=C2\SC(=S)N(c3ccc([N+](=O)[O-])cc3)C2=O)cc([N+](=O)[O-])c1O` : 5.15
